System name: VdesOBP5 (Varroa destructor, UniProt A0A7M7KHR4)
Sequence (A0A7M7KHR4 22-231): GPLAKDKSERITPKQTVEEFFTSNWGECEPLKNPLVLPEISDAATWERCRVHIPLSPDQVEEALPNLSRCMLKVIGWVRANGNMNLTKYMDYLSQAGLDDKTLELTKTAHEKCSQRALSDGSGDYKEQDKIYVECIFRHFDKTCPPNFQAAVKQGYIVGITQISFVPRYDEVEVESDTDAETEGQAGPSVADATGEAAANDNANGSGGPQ
pKd: −log10 of the molar value.

Line notation: c1ccc(Nc2cccc3ccccc23)cc1
pKd: 5.37
